details: in methanol, 288.15 K
readout name: solubility (mole fraction)
Quick one: just the number, no unit, thanks!

input: Name the recorded solubility (mole fraction) of the item "O=[N+]([O-])c1cccc(Cl)c1Cl" in your answer.
output: 0.0206

----------
settings: in water, 288.15 K
readout name: solubility (mole fraction)
Quick one: just the number, no unit, thanks!

input: Name the recorded solubility (mole fraction) of the item "O=[N+]([O-])c1cccc(Cl)c1Cl" in your answer.
output: 3.91e-06

----------
details: in ethanol, 283.15 K
readout name: solubility (mole fraction)
Quick one: just the number, no unit, thanks!

input: Name the recorded solubility (mole fraction) of the item "O=[N+]([O-])c1cccc(Cl)c1Cl" in your answer.
output: 0.0172

----------
conditions: in methanol, 290.65 K
readout name: solubility (mole fraction)

input: Name the recorded solubility (mole fraction) of the item "O=[N+]([O-])c1cccc(Cl)c1Cl" in your answer.
output: 0.0232

----------
conditions: in water, 283.15 K
readout name: solubility (mole fraction)
Quick one: just the number, no unit, thanks!

input: Name the recorded solubility (mole fraction) of the item "O=[N+]([O-])c1cccc(Cl)c1Cl" in your answer.
output: 2.45e-06

----------
conditions: in methanol, 283.15 K
readout name: solubility (mole fraction)
Quick one: just the number, no unit, thanks!

input: Name the recorded solubility (mole fraction) of the item "O=[N+]([O-])c1cccc(Cl)c1Cl" in your answer.
output: 0.0157

----------
conditions: in ethanol, 280.65 K
readout name: solubility (mole fraction)
Quick one: just the number, no unit, thanks!

input: Name the recorded solubility (mole fraction) of the item "O=[N+]([O-])c1cccc(Cl)c1Cl" in your answer.
output: 0.0149

----------
details: in methanol, 280.65 K
readout name: solubility (mole fraction)
Quick one: just the number, no unit, thanks!

input: Name the recorded solubility (mole fraction) of the item "O=[N+]([O-])c1cccc(Cl)c1Cl" in your answer.
output: 0.0137

----------
details: in methanol, 300.65 K
readout name: solubility (mole fraction)
Quick one: just the number, no unit, thanks!

input: Name the recorded solubility (mole fraction) of the item "O=[N+]([O-])c1cccc(Cl)c1Cl" in your answer.
output: 0.0343

----------
details: in methanol, 298.15 K
readout name: solubility (mole fraction)

input: Name the recorded solubility (mole fraction) of the item "O=[N+]([O-])c1cccc(Cl)c1Cl" in your answer.
output: 0.0315
